Measured values drawn from the supplement of paper PMC12667976 for this set.

Measured AIRE transcriptional activation functional score values are reported for all entries that follow.
B1: library; numbered along this chain (parent)
chain: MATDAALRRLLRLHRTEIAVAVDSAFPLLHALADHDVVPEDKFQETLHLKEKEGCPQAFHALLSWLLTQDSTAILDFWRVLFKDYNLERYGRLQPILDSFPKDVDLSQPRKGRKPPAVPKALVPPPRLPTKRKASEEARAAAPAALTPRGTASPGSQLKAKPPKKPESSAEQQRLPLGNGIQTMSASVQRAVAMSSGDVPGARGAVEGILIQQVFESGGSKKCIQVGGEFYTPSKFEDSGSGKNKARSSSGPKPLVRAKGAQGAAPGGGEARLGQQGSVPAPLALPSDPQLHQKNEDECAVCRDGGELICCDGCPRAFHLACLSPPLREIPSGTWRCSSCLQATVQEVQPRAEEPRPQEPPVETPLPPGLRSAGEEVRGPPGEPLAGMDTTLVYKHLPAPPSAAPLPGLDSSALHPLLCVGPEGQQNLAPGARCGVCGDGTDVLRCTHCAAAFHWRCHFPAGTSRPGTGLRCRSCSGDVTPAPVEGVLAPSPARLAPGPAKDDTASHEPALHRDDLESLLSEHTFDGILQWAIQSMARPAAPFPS

Variants of: B1
Experiment: AIRE transcriptional activation functional score (insulin promoter-GFP; nonsense median 0, synonymous median 1) (normalised score); higher = higher AIRE activity (more reporter activation)
Details: with insulin promoter-GFP reporter in HEK293
RECORDED ENDPOINT: AIRE transcriptional activation functional score

# MUTATION SPEC, REPORTED MEASUREMENT
measured = [
    ("Q108V", 0.8),
    ("E88W", 0.779),
    ("A386M", 1.53),
    ("H512C", -0.3),
    ("D502E", 0.952),
    ("E17P", -0.151),
    ("L283D", 1.01),
    ("C437E", 0.473),
    ("P109T", 1.54),
    ("K501S", 1.3),
    ("L516R", 0.262),
    ("D502S", 0.804),
    ("V279Y", 1.26),
    ("Q157T", 0.825),
    ("V188K", 0.779),
    ("P400I", 0.76),
    ("S518W", 0.848),
    ("Q94Y", 0.209),
    ("S168A", 0.888),
    ("P361E", 0.976),
    ("R356F", 1.15),
    ("P380Y", 1.42),
    ("G527K", 0.173),
    ("K243C", 0.711),
    ("Q182P", 0.264),
    ("S195F", 0.0295),
    ("I533G", 0.261),
    ("L511W", 1.02),
    ("L62R", -0.00966),
    ("H415G", 0.474),
    ("Q173C", 1.51),
    ("L495H", 1.23),
    ("L409S", 1.23),
    ("R247V", 1.16),
    ("A271D", 1.22),
    ("A25K", 0.411),
    ("R494I", 0.785),
    ("S234M", 1.15),
    ("F459Y", 1.3),
    ("E376V", 1.24),
    ("R149H", 1.12),
    ("H523C", -0.042),
    ("Q276W", 0.869),
    ("P355W", 1.32),
    ("D526E", 0.925),
    ("T344L", 0.939),
    ("G155W", 1.83),
    ("E45Y", -0.129),
    ("G197W", 0.323),
    ("R12E", -0.463),
    ("P544L", 1.19),
    ("P282W", 1.1),
    ("S287Y", 1.17),
    ("A403R", 0.877),
    ("H415F", 1.67),
    ("T344A", 0.851),
    ("E17Y", -0.411),
]
